assay: yeast display, Sf9 membrane polyspecificity reagent, FACS + sequencing; frameworks hold sequencing errors
Readout Name: polyreactivity (PSR sort gate)

Some solved cases for reference:
QVQLVESGGGLVQAGGSLRLSSAASGSTIGGYAMGWYRQAPGKERELVAAITRSGGRTYYADSVKGRFTISRDNSKNTVYLQMNSLKPEDTAVYYCATLVTIGRYDSWGQGTQVTVSS    high polyreactivity
QLQLVESGGGLVQAGGSIRLSCAASGSIFDWYAMGWYRQEPGKERELVARITSGGRTNYADSVKGRFTISRDNAKNTVYLQMNSLKPEDTAVYYCAAGRVSWSPYYYWGQGTQVTVSS    high polyreactivity
QVQLVESGGGLVQAGGSLRLSCAASGITFYRNARGWYRQAPGNEMELVAAITWNGGRTYYADSVKGRVTISRDNAKNTVDLQMNSLKPEDTAVYDCAADSGTRNLASYRYYYWGQGTLVTVSS    low polyreactivity
QVQLVESGGGLVQAGGSLRLSCAASGSIFFPYAMGWYIQAPGKERELVAAITGSTGSTYYADSVKGRFTISRDNAKNTVYLQMNSLKPEDTAVYYCAAAEYFVSGGIMDYWGQGTQVTVSS    high polyreactivity
QVQLVESGGGLVQAGGSLRLSCAASGRTLFVYAMGWYRQAPGKEREFVAAIRWRGGSTYYADSVKGRFTISRDNAKNTVYLQMNSLKPEDTAVYYCAADTYWVKTDYLYGYWGQGTQVTVSS    high polyreactivity

Asked: For the sequence QVQLVESGGGLVQAGGSLRLSCAASGRTKQRKAMGWYRQAPGKERELVAAISSSGGSTYYADSVKGRFTISRDNAKNTVYLQMNSLKPEDTAVYYCAADGQFDDYYSLPFYYDYWGQGTHVTVSS , give its reported polyreactivity (PSR sort gate).
Given back: high polyreactivity

Asked: For the sequence QVQLVESGGGLVQAGGSLRLSCAASGSTFSRYAMGWYRQAPGKERELVAAISWGGNTYYADSVKGRFTISRDNAKNTVYFQMNSLKPEDTALYYCATEVRYQGWRDYWGQVTQVTVSS , give its reported polyreactivity (PSR sort gate).
Given back: high polyreactivity

Asked: For the sequence QVQLQESGVGLVQAGGSLGCAASGNISTRSEMGWYRQAPGKEREFVATINSGGITNYADSVKGRFTISRDNAKNTVYLRMNSLKPEDTAVYYREVYGYFSDPYDYWGQGTQVTVSS , give its reported polyreactivity (PSR sort gate).
Given back: low polyreactivity

Asked: For the sequence QVQLVESGGGLVQAGGSLRLSCAASGRIFTVYGMGWYRQAPGKERELVAAISWSGGGTYYADSVKGRFTISRDNAKNTVYLHMNSLKPEDTAVYYCNADRQYTWSLVFFSSDYDYWGQGTQVTVSS , give its reported polyreactivity (PSR sort gate).
Given back: low polyreactivity

Asked: For the sequence QVQLVESGGGLVQAGGSLRLSCAASGSIFYRYAMGWYRQAPGKERELVAAIRSRTGRTYYADSVKGRFTISRDNAKNTVYLQMNCLNPEDTAVYYCAADKYFSARFDYWGQGTQVTVSS , give its reported polyreactivity (PSR sort gate).
Given back: high polyreactivity

Asked: For the sequence QVQLVESGGGLVQAGGSLRLSCAASGSTFYPYAMGWYRQAPGKEREFVAGISRSGGTTYYADSVKGRFTISRDNAKNTVYLQMNSLKPEDTAVYYCAVQIPYVYWSYDYWGQGTQVTVSS , give its reported polyreactivity (PSR sort gate).
Given back: low polyreactivity

Asked: For the sequence QVQLVESGGGLVQAGGSLRLSCAASGITFKTNARGWYRQAPGKERELVAAINKRGGSTYYADSVKGRFTISRDNAKNTVYLQMNSLKPEDTAVYYCARRYGEKFGGQGTQVTVSS , give its reported polyreactivity (PSR sort gate).
Given back: high polyreactivity
